Target of assay: α6β2γ2 GABAA receptor (Homo sapiens, UniProt P18507+Q16445)
Experiment summary: Radioligand binding (McKernan and Atack), α6β2γ2
Study conditions: Table 3; αxβ2γ2; means of two determinations; read-out: Binding affinity α6
Attribute measured: Ki

# count of solved cases: 2
Chemical string: C#Cc1ccc2c(c1)C(c1ccccc1F)=N[C@H](C)c1c(C(=O)OCC)ncn1-2
Attribute measured: Ki
Test result: > 5 µM

Chemical string: C#Cc1ccc2c(c1)C(c1ccccc1)=N[C@H](C)c1c(C(=O)OCC)ncn1-2
Attribute measured: Ki
Test result: > 5 µM

Please examine the following record next.
Q) Give its Ki value. Item: C#Cc1ccc2c(c1)C(c1ccccc1)=N[C@@H](C)c1c(C(=O)OCC)ncn1-2
A) > 5 µM

* * *

Target of assay: α2β3γ2 GABAA/BzR (Homo sapiens, UniProt P18507+P47869)
Experiment summary: Competition binding to HEK cell membranes, α2β3γ2
Design: expressed in transfected cells
Study conditions: Figure 17; read-out: Binding data Ki α2
pKi: −log10 of the molar value.
Attribute measured: pKi

Q) Give its pKi value. Item: CCOC(=O)c1ncn2c1CN=C(c1ccccc1)c1cc(-c3ccccc3)ccc1-2 [DM-I-81 (9)]
A) < 5.70

* * *

Target of assay: α1β3γ2 GABAA/BzR (Homo sapiens, UniProt P14867+P18507)
Experiment summary: Competition binding to HEK cell membranes, α1β3γ2
Set-up: expressed in transfected cells
Study conditions: read-out: Ki α1
Attribute measured: pKi
Keep in mind that pKi stands for -log10 of concentration in molar terms.

# count of solved cases: 4
Compound: CCOC(=O)c1ncc2[nH]c3ccc(OCc4cccc5ccccc45)cc3c2c1COC [EDC-II-044]
Target of assay: α1β3γ2 GABAA/BzR (Homo sapiens, UniProt P14867+P18507)
Test result: 7.81

Compound: COc1ccc2c(c1)C(=O)N1CCCC1c1c(C(=O)OC(C)C)ncn1-2 (centres unmarked) [CM-E09b]
Target of assay: α1β3γ2 GABAA/BzR (Homo sapiens, UniProt P14867+P18507)
Test result: 7.70

Compound: CCc1c(C(=O)OC)ncc2[nH]c3cc(OC)c(OC)cc3c12 [DMCM, reference compound]
Target of assay: α1β3γ2 GABAA/BzR (Homo sapiens, UniProt P14867+P18507)
Test result: 8.24

Compound: CC(C)(C)CC(=O)c1cc2c(cn1)[nH]c1ccccc12 [CM-A77]
Target of assay: α1β3γ2 GABAA/BzR (Homo sapiens, UniProt P14867+P18507)
Test result: 7.94

Please examine the following record next.
Q) Give its pKi value. Item: O=[N+]([O-])c1ccc2[nH]c3cnc([N+](=O)[O-])cc3c2c1 [EDC-I-071]
A) 7.89

* * *

Target of assay: α5β3γ2 GABAA/BzR (Homo sapiens, UniProt P18507+P31644)
Experiment summary: Competition binding to HEK cell membranes, α5β3γ2
Set-up: expressed in transfected cells
Study conditions: Ki α5
Attribute measured: log10 Ki (log10 of the value in nM)
Values are log10 of Ki in nM.

# count of solved cases: 3
Compound: CC(C)(C)OC(=O)c1cc2c(cn1)[nH]c1ccc(C(C)(C)C)cc12 [CM-A82a]
Test result: 0.87
//
Compound: C[Si](C)(C)C#Cc1ccc2[nH]c3cnc(C(=O)OCC(F)(F)F)cc3c2c1 [WY-B-25]
Test result: 2.42
//
Compound: CC(C)(C)OC(=O)c1cc2c(cn1)[nH]c1ccc(-c3ccccc3)cc12 [WYS15]
Test result: 1.88

Q) Find the measured log10 Ki: item CC(C)(C)OC(=O)c1cc2c(cn1)[nH]c1ccccc12 [BCCt] , target or system α5β3γ2 GABAA/BzR (Homo sapiens, UniProt P18507+P31644).
A) 1.84

Q) Find the measured log10 Ki: item O=C(OCC(F)(F)F)c1cc2c(cn1)[nH]c1ccc(I)cc12 [WY-B-20] , target or system α5β3γ2 GABAA/BzR (Homo sapiens, UniProt P18507+P31644).
A) 2.09

Q) Find the measured log10 Ki: item C#Cc1ccc2c(c1)C(=O)N1CCC1c1c(-c3ocnc3C(=O)OCC)ncn1-2 (centres unmarked) [RY-069] , target or system α5β3γ2 GABAA/BzR (Homo sapiens, UniProt P18507+P31644).
A) 1.28

Q) Find the measured log10 Ki: item CCOC(=O)c1cc2c(cn1)[nH]c1ccc(C#C[Si](C)(C)C)cc12 [WY-B-99-1] , target or system α5β3γ2 GABAA/BzR (Homo sapiens, UniProt P18507+P31644).
A) 1.67

Q) Find the measured log10 Ki: item Cc1nnc2n1-c1ccc(Cl)cc1C(c1ccccc1)=NC2 [alprazolam, reference compound] , target or system α5β3γ2 GABAA/BzR (Homo sapiens, UniProt P18507+P31644).
A) 0.19

Q) Find the measured log10 Ki: item C#Cc1ccc2c(c1)C(=O)N(C)Cc1c(C(=O)OCCCOC(=O)c3ncn4c3CN(C)C(=O)c3cc(C#C)ccc3-4)ncn1-2 [XLi-093 (4)] , target or system α5β3γ2 GABAA/BzR (Homo sapiens, UniProt P18507+P31644).
A) 1.18

Q) Find the measured log10 Ki: item CCCOc1ccc2[nH]c3cnc(C(=O)OCC)c(COC)c3c2c1 [6-PBC] , target or system α5β3γ2 GABAA/BzR (Homo sapiens, UniProt P18507+P31644).
A) 0.38

Q) Find the measured log10 Ki: item C#Cc1ccc2c(c1)C(=O)N(C)Cc1c(C(=O)OCC)ncn1-2 [RY-080 C17H15N3O3] , target or system α5β3γ2 GABAA/BzR (Homo sapiens, UniProt P18507+P31644).
A) -0.31

* * *

Target of assay: α2β3γ2 GABAA/BzR (Homo sapiens, UniProt P18507+P47869)
Experiment summary: Competition binding to HEK cell membranes, α2β3γ2
Design: expressed in transfected cells
Study conditions: Ki α2
Attribute measured: Ki

Molecule: CCCOc1ccc2[nH]c3cnc(C(=O)OCC)c(COC)c3c2c1 [6-PBC]
Test result: 1.21 nM

Molecule: C[Si](C)(C)C#Cc1ccc2[nH]c3cnc(C(=O)OCC(F)(F)F)cc3c2c1 [WY-B-25]
Test result: 40 nM

Molecule: CCOC(=O)c1ncc2[nH]c3ccc(OCc4ccccc4)cc3c2c1COC [ZK 93423, reference compound]
Test result: 4.2 nM

Molecule: C#Cc1ccc2c(c1)C(=O)N(C)Cc1c(C(=O)OCC)ncn1-2 [RY-080 C17H15N3O3]
Test result: 21.4 nM

Molecule: C#Cc1ccc2[nH]c3cnc(C(=O)OCC(F)(F)F)cc3c2c1 [WY-B-26-2]
Test result: 44.6 nM

Q) Give its Ki value. Item: O=C(OCC(F)(F)F)c1cc2c(cn1)[nH]c1ccc(I)cc12 [WY-B-20]
A) 39 nM

Q) Give its Ki value. Item: CC(C)(C)OC(=O)c1cc2c(cn1)[nH]c1ccc(-c3ccccc3)cc12 [WYS15]
A) 2.02 nM

Q) Give its Ki value. Item: C#Cc1ccc2c(c1)C(c1ccccc1)=NCc1c(C(=O)OCCCOC(=O)c3ncn4c3CN=C(c3ccccc3)c3cc(C#C)ccc3-4)ncn1-2 [compound 63]
A) 7.4 nM

Q) Give its Ki value. Item: CC(C)(C)OC(=O)c1cc2c(cn1)[nH]c1ccc(C(C)(C)C)cc12 [CM-A82a]
A) 8.93 nM

* * *

The following compounds are shown together with reported Ki values.
Target of assay: α6β3γ2 GABAA/BzR (Homo sapiens, UniProt P18507+Q16445)
Experiment summary: Competition binding to HEK cell membranes, α6β3γ2
Set-up: expressed in transfected cells
Study conditions: read-out: Ki α6
Unit nM implied. Number only.

Compound: CCOC(=O)c1ncc2[nH]c3ccc(OCc4cccc5ccccc45)cc3c2c1COC [EDC-II-044]
Attribute measured: Ki
Test result: 1000

Compound: COc1ccc2c(c1)C(=O)N(C)Cc1c(C(=O)OC(C)(C)C)ncn1-2 [DM-215]
Attribute measured: Ki
Test result: 8.28

Compound: COc1ccc(-n2nc3c4ccccc4[nH]cc-3c2=O)cc1 [CGS9895, reference compound]
Attribute measured: Ki
Test result: 9.3

Please examine the following record next.
Q) Give its Ki value. Item: C=Cc1ccc2c(c1)C(=O)N1CCC[C@H]1c1c(C(=O)OCC(F)(F)F)ncn1-2 [JYI-12]
A) 6.8

* * *

Target of assay: α4β3γ2 GABAA/BzR (Homo sapiens, UniProt P18507+P48169)
Construct: expressed in transfected cells; host or cells: LTK cells (given for XLi-093 only)
Experiment summary: biochemical
Type: binding
Study conditions: Figure 17; read-out: Binding data Ki α4
Attribute measured: Ki

Q) Give its Ki value. Item: CCOC(=O)c1ncn2c1CN=C(c1ccccc1)c1cc(-c3ccccc3)ccc1-2
A) > 2000 nM

Ref: paper PMC4657098
